Target: T1, gTBP (GST-gTBP) (Giardia intestinalis WB C6 (ATCC 50803), UniProt E2RU70 1-200)
T1 sequence: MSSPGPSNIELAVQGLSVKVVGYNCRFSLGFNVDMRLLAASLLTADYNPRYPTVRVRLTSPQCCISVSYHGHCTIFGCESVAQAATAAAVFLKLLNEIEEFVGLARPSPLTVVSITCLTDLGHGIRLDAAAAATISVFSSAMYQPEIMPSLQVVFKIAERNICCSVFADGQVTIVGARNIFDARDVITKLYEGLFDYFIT
Assay: competition; vs H4-b and H2B-b probes; 10 mM Tris-HCl pH 8.0, 0.15 M NaCl, 0.5 mM TCEP, 5% glycerol, 1 ug/ul BSA, 15 ng/ul salmon sperm DNA, 30 min on ice; probe 0.1 pmol/ul, competitor 200-fold excess
Conditions: protein: recombinant; tags: N-terminal GST
measured-endpoint: binding result

>>> df
                                     binder  measured_endpoint  test_result
0  AAAAAAAAAAAAAAAAAAAAAAAAAAAAAA (ssDNA) [polyA(30)]     binding result   no binding
1  AAAATTATACCTATGCCGCCGCACTCAAAA (ssDNA) [dn 14]     binding result        binds
2  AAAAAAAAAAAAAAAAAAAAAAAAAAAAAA (ssDNA) [dn 1]     binding result   no binding
3  AAAACTCCTCCCTTCCCTTTCTTCCCAAAA (ssDNA) [dn 13]     binding result        binds
